Biological target: b-Raf(V600E) (Homo sapiens (Human), UniProt P15056, V600E)
Sequence (P15056 whole entry V600E): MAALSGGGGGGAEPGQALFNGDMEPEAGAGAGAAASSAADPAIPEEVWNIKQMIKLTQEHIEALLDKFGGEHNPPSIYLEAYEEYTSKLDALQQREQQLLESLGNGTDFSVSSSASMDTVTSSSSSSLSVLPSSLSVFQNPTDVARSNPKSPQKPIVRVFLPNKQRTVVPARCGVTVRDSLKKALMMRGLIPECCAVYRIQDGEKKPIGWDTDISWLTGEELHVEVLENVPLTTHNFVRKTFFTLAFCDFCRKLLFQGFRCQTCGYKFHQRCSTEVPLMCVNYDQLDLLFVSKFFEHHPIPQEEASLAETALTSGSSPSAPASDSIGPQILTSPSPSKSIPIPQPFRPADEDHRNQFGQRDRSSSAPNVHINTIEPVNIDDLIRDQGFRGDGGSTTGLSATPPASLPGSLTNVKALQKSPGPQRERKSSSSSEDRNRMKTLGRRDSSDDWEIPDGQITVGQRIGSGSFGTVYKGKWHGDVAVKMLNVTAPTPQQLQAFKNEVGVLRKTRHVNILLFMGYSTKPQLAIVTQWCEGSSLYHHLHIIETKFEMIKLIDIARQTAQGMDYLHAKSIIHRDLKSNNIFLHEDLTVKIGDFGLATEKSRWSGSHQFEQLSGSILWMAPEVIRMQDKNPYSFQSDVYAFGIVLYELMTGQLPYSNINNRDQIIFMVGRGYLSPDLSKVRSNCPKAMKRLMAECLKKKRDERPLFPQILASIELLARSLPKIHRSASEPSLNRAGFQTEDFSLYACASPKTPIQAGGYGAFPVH
Test: Raf/Mek Amplified Luminescence Proximity Homogeneous Assay (Alpha Screen)
Conditions: b-Raf(V600E) approximately 4 pM; biotinylated Mek, kinase dead approximately 10 nM; ATP 10 μM; pre-incubation 60 minutes; reaction 3 hours at room temperature; read-out: mut-B-RAF IC50
readout_label: IC50 (nM)

A selection of reference data follows.
molecule	observed_value
COC(=O)N[C@@H](C)CNc1nccc(-c2nc(C(C)(C)C)[nH]c2-c2cc(NS(=O)(=O)C(C)C)cc(OC(F)F)c2)n1	11.2
CC(C#N)CNc1nccc(-c2[nH]c(C3CC3)nc2-c2cccc(NS(C)(=O)=O)c2Cl)n1 (stereo not shown)	11
CCCS(=O)(=O)Nc1ccc(F)c(-c2nc(C3CC3)[nH]c2-c2ccnc(NC[C@H](C)NC(=O)OC)n2)c1Cl	0.45
COC(=O)N[C@@H](C)CNc1nccc(-c2[nH]c(C3CC3)nc2-c2cc(C)cc(NS(=O)(=O)C(C)C)c2)n1	0.96
CC(C)(C)c1nc(-c2cc(Cl)cc(NS(C)(=O)=O)c2F)c(-c2ccnc(N)n2)[nH]1	3
CCCS(=O)(=O)Nc1cc(F)cc(-c2nc(C3CC3)[nH]c2-c2ccnc(NC)n2)c1Cl	0.11
COC(=O)N[C@@H](C)CNc1nccc(-c2[nH]c(C(C)(C)C)nc2-c2cc(Cl)cc(NS(=O)(=O)C(C)C)c2C)n1	67.2
CCCS(=O)(=O)Nc1cc(F)cc(-c2nc(C3CC3)[nH]c2-c2ccnc(N)n2)c1Cl	0.2

[P] CC(C)Nc1nccc(-c2[nH]c(C3CC3)nc2-c2cc(F)cc(NS(C)(=O)=O)c2Cl)n1
[Q] CC(C)(C)c1nc(-c2cc(Cl)cc(NS(=O)(=O)c3c(F)cccc3F)c2F)c(-c2ccnc(N)n2)[nH]1
Of the two listed items, which has the higher IC50? First: P Second: Q Use the label to indicate which entry you chose.
P

[a] COC(=O)N[C@@H](C)CNc1nccc(-c2[nH]c(C3CC3)nc2-c2cc(Cl)cc(NS(=O)(=O)c3cc(F)cc(F)c3)c2F)n1
[b] CCCS(=O)(=O)Nc1cc(Cl)cc(-c2[nH]c(C(C)(C)C)nc2-c2ccnc(NC[C@H](C)NC(=O)OC)n2)c1F
[c] COC(=O)N[C@@H](C)CNc1nccc(-c2[nH]c(C(C)(C)C)nc2-c2cc(C)cc(NS(=O)(=O)C(C)C)c2)n1
[d] CCCS(=O)(=O)Nc1cccc(-c2nc(C3CC3)[nH]c2-c2ccnc(NCCC#N)n2)c1F
Sort ascending by IC50. Answer with the labels in sequence, matching the requested order.
d, a, b, c
(d: 0.13 nM, a: 0.37 nM, b: 0.53 nM, c: 3.12 nM)

[a] CCCS(=O)(=O)Nc1cc(F)cc(-c2nc(C3CC3)[nH]c2-c2ccncn2)c1Cl
[b] COC(=O)N[C@@H](C)CNc1nccc(-c2[nH]c(C3CCC3)nc2-c2cc(Cl)cc(NS(C)(=O)=O)c2F)n1
[c] CNc1nccc(-c2[nH]c(C3CC3)nc2-c2cc(F)cc(NS(C)(=O)=O)c2Cl)n1
[d] COC(=O)N[C@H](C)CNc1nccc(-c2[nH]c(C3CC3)nc2-c2cc(F)cc(NS(C)(=O)=O)c2Cl)n1
Arrange these 4 molecules in increasing order of IC50. Please list the labels in the order you were asked to rank them.
b, a, d, c
